# Tested on: CEM cells HIV-1 protection, formazan growth assay
# TEST_PROTOCOL: NCI AIDS Antiviral Assay;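 active = compounds giving half or more protection of infected cells from virus-caused growth loss, again on retest; inactive = the rest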
Could you please pick one outcome from this set? active, inactive

Query :: Write down the call the test reported for this compound. Item: `COc1ccc2nc(-c3ccccc3)c(=O)[nH]c2c1`
Result :: inactive

Query :: Write down the call the test reported for this compound. Item: `O=c1ccc(=O)c2c1c1[nH]c3ccccc3c1c1c(=O)c3ccccc3c(=O)c21`
Result :: inactive

Query :: Write down the call the test reported for this compound. Item: `CCOC(=O)c1ccc(-c2cccs2)[nH]1`
Result :: inactive

Query :: Write down the call the test reported for this compound. Item: CCCCCCCCCCCCCCCCCCOC(COP(=O)(O)OCC1OC(n2cc(F)c(=O)[nH]c2=O)CC1O)COP(=O)(O)OCC1OC(n2cc(C)c(=O)[nH]c2=O)CC1N=[N+]=[N-] (centres undefined)
Result :: active

Query :: Write down the call the test reported for this compound. Item: COc1cc2c(cc1OC)C(CSC)Cc1cc(OC)c(OC)cc1N(C)CCC2 (centres undefined)
Result :: inactive

Query :: Write down the call the test reported for this compound. Item: `CO[C@@](c1ccccc1)(c1nc(C#N)c(N)o1)C(F)(F)F`
Result :: inactive

Query :: Write down the call the test reported for this compound. Item: CSc1ccc(NC(=O)C2c3[nH]c4ccccc4c3C3CCC(C(C)(C)C)CC3C2C(=O)O)cc1 (centres undefined)
Result :: inactive

Query :: Write down the call the test reported for this compound. Item: CN(Cc1cnc2nc(N)nc(N)c2n1)c1ccc(C(=O)NC(CCC(=O)NCCC(P(=O)(O)O)P(=O)(O)O)C(=O)O)cc1 (centres undefined)
Result :: inactive

Query :: Write down the call the test reported for this compound. Item: CCC1(CC=C(C)C)Oc2cccnc2-n2cccc2C1=O (centres undefined)
Result :: inactive

###

# Test system: CEM cells HIV-1 protection, formazan growth assay
# TEST_PROTOCOL: NCI AIDS Antiviral Assay
READOUT_NAME: EC50

Query :: Value lookup for EC50; key = `Clc1ccc(Nc2nc3ccccc3nc2-c2cccs2)cc1Cl`
Result :: > 14.1 µM

Query :: Value lookup for EC50; key = `CN=C(Nc1ccc(OC)c2ccccc12)SC`
Result :: > 200 µM

Query :: Value lookup for EC50; key = CC(NNC(=S)N1CCCCCC1)c1cccnn1 (stereo not given)
Result :: > 200 µM

Query :: Value lookup for EC50; key = `COC(=O)[C@H](Cc1cn(C(c2ccccc2)(c2ccccc2)c2ccccc2)cn1)NCc1cc(N(C)C)cc(CN[C@@H](Cc2cn(C(c3ccccc3)(c3ccccc3)c3ccccc3)cn2)C(=O)OC)n1`
Result :: > 100 µM

Query :: Value lookup for EC50; key = `Cc1ccc(-c2c(C#N)c(N)nc3c2CCS(=O)(=O)c2ccccc2-3)cc1`
Result :: > 200 µM

###

# System: CEM cells HIV-1 protection, formazan growth assay
# TEST_PROTOCOL: NCI AIDS Antiviral Assay
# COND: measured here: growth of uninfected CEM cells
READOUT_NAME: log10 of IC50 (log10 of the value in µM)
Scale: log10; quantity: IC50; unit before log: µM

Query :: State its log10 of IC50 on CEM cells HIV-1 protection, formazan growth assay: `Nc1ccccc1C1=Nc2cncnc2NC1`
Result :: 2.47

Query :: State its log10 of IC50 on CEM cells HIV-1 protection, formazan growth assay: C=CCCCCCCCCC(=O)NC(C)C(C)(C)C (stereo not drawn)
Result :: 1.87

Query :: State its log10 of IC50 on CEM cells HIV-1 protection, formazan growth assay: `CN(C)c1ccc(N=C2N=C(Nc3ccccc3)C(=Nc3ccccc3)S2)cc1`
Result :: 1.86

Query :: State its log10 of IC50 on CEM cells HIV-1 protection, formazan growth assay: NC(Cc1ccccc1)C(=O)OCN1C(=O)C2C3C=CC(C2C1=O)C1C2C(=O)N(COC(=O)C(N)Cc4ccccc4)C(=O)C2C31 (stereo not drawn)
Result :: 1.50

Query :: State its log10 of IC50 on CEM cells HIV-1 protection, formazan growth assay: Cc1oc2c(c1C)S(=O)(=O)C(C#N)C(c1ccccc1)N2 (stereo not drawn)
Result :: 2.10

Query :: State its log10 of IC50 on CEM cells HIV-1 protection, formazan growth assay: COC1/C=C/OC2(C)Oc3c(C)c(O)c4c(O)c(c(/C=N/N(C)c5nc6c(N)ncnc6n5C5OC(CO)C(O)C5O)c(O)c4c3C2=O)NC(=O)C(C)=C/C=C/C(C)C(O)C(C)C(O)C(C)C(OC(C)=O)C1C (stereo not drawn)
Result :: 2.05

Query :: State its log10 of IC50 on CEM cells HIV-1 protection, formazan growth assay: `O=c1oc2ccccc2c(O)c1/C=N/C(=S)Nc1ccccc1`
Result :: 1.71

Query :: State its log10 of IC50 on CEM cells HIV-1 protection, formazan growth assay: `CCOC(=O)c1cnc2c(ccc3ncccc32)c1Cl`
Result :: 1.54

Query :: State its log10 of IC50 on CEM cells HIV-1 protection, formazan growth assay: CC1(C)C2CCC3(C2)CS(=O)(=O)N2OC231 (stereo not drawn)
Result :: 2.08

Query :: State its log10 of IC50 on CEM cells HIV-1 protection, formazan growth assay: `Cc1cc([C@H](C#N)c2nc3ccccc3[nH]2)nc(Cl)n1`
Result :: 1.35

Query :: State its log10 of IC50 on CEM cells HIV-1 protection, formazan growth assay: COc1ccc2c(c1OC)C1CCCCC1SCC2=O (stereo not drawn)
Result :: 2.02

Query :: State its log10 of IC50 on CEM cells HIV-1 protection, formazan growth assay: `COC(=O)c1ccc2cc(O)ccc2c1`
Result :: 1.92

Query :: State its log10 of IC50 on CEM cells HIV-1 protection, formazan growth assay: `CCOC(=O)Nc1nn(-c2ccc3ccccc3n2)c(=O)[nH]1`
Result :: 1.00

Query :: State its log10 of IC50 on CEM cells HIV-1 protection, formazan growth assay: `CCSc1ccc(/C=C(\C#N)c2ccc(OCCN(CC)CC)cc2)cc1`
Result :: 0.08
